Would you mind telling me the reported IC50 of each entry?
Assayed system: Kras and SOS1 (biotin-tagged human Kras loaded with GDP, His-tagged human SOS1) (Homo sapiens, UniProt P01116, G12D)
Construct: made in house; host or cells: E. coli (stated for Kras only)
Sequence (P01116 1-188 isoform P01116-2 G12D): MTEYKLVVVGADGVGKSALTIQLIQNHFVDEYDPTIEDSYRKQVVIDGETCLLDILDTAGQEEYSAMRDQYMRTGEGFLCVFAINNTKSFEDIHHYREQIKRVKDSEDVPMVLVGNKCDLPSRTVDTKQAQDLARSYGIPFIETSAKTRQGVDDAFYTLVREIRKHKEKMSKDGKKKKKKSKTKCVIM
Procedure details: Protein-protein interaction inhibition between Kras and SOS1 (KrasGl2D-SOS PPI) using AlphaScreen
Format: binding
Condition description: AlphaScreen; biotin-tagged human Kras loaded with GDP, His-tagged human SOS1; read-out: KRAS G12D-SOS PPI IC50
Positions of bridges follow the written chain, without caps; N, C: chain ends. Non-standard residues stand in square brackets, D forms with d. Residues, ends and D or L forms follow the SMILES beside them. *: point of attachment. hPhe(3-Cl-4-CF3) = N[C@@H](CCc1ccc(C(F)(F)F)c(Cl)c1)C(=O)O; 3Oxa8azabicyclo(3.2.1)octane = C1CC2COCC1N2*; NMehPhe = CN[C@@H](CCc1ccccc1)C(=O)O; NMeCha = CN[C@@H](CC1CCCCC1)C(=O)O; NMeChg = CN[C@H](C(=O)O)C1CCCCC1; NMeD = CN[C@@H](CC(=O)O)C(=O)O; NMeL = CN[C@@H](CC(C)C)C(=O)O; NMeNva = CCC[C@H](NC)C(=O)O; NMeV = CN[C@H](C(=O)O)C(C)C; Piperidide = C1CCN(*)CC1; Ac5c = NC1(C(=O)O)CCCC1; Aze = O=C(O)[C@@H]1CCN1; Sar = CNCC(=O)O
Units required after the number.

q: Which value of IC50 has been reported for CCC[C@H]1C(=O)N[C@@H]([C@@H](C)CC)C(=O)N(C)CC(=O)N(C)CC(=O)N(C)[C@@H](CC2CCCCC2)C(=O)N(C)CC(=O)N[C@@H](CCc2ccc(C(F)(F)F)c(Cl)c2)C(=O)N2CCC[C@H]2C(=O)NC2(CCCC2)C(=O)N(C)[C@@H](C2CCCCC2)C(=O)N(C)[C@H](C(=O)N2C3CCC2COC3)CC(=O)N1C [Compound 1933] ([NMeNva]I[Sar][Sar][NMeCha][Sar][hPhe(3-Cl-4-CF3)]P[Ac5c][NMeChg][NMeD]-{3Oxa8azabicyclo(3.2.1)octane}; lactam N-11) in the records?
a: 0.59 nM

q: Which value of IC50 has been reported for CC[C@H](C)[C@@H]1NC(=O)[C@H](CC(C)C)N(C)C(=O)C[C@@H](C(=O)N2CCCCC2)N(C)C(=O)[C@H](C(C)C)N(C)C(=O)C2(CCCC2)NC(=O)[C@@H]2CCCN2C(=O)[C@H](CCc2ccc(C(F)(F)F)c(Cl)c2)NC(=O)CN(C)C(=O)[C@H](CC2CCCCC2)N(C)C(=O)[C@@H]2CCN2C(=O)[C@H](CCc2ccccc2)N(C)C1=O [Compound 1624] ([NMeL]I[NMehPhe][Aze][NMeCha][Sar][hPhe(3-Cl-4-CF3)]P[Ac5c][NMeV][NMeD]-Piperidide; lactam N-11) in the records?
a: 92 nM
